B1: GMCL1 (parent)
chain: RPDTGDDAAGHGFCYCAGSHKRKR

variants of: B1; assay: protein stability index of a GFP-peptide fusion (GPS, HEK-293T) (PSI 1-6); higher = more stable; conditions: c terminus: a fixed tail appended;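 also: lentivirally expressed fusions sorted by FACS into six bins by GFP to DsRed ratio, PSI derived from sequencing read proportions per bin multiplied by bin number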
property_label: protein stability index

Check out these entries, answers already filled in.
RPDTGDDAAGHGFCYCAGSHKRPR [K23P]
2.84
RPDTGDDAAGHGFCYCAGSLKRKR [H20L]
3.18
RPDTGDDAAGHGFAYCAGSHKRKR [C14A]
4.73
RPDTGDDAAGHGFCICAGSHKRKR [Y15I]
3.09

In plain terms, RPDTGDDAAGHGFNYCAGSHKRKR [C14N] has a documented protein stability index of 4.62

In plain terms, RPDTGDDAAGHGFCQCAGSHKRKR [Y15Q] has a documented protein stability index of 2.74

In plain terms, RPDTGDDAAGHGFCYCAGPHKRKR [S19P] has a documented protein stability index of 2.45

In plain terms, RPDTGDDAAGHGFCYCAGSHKHKR [R22H] has a documented protein stability index of 2.56

In plain terms, RPDTGDDAAGHGFCYCAGSEKRKR [H20E] has a documented protein stability index of 3.3

In plain terms, RPDTGDDAAIHGFCYCAGSHKRKR [G10I] has a documented protein stability index of 2.71

In plain terms, RPDVGDDAAGHGFCYCAGSHKRKR [T4V] has a documented protein stability index of 3

In plain terms, RPETGDDAAGHGFCYCAGSHKRKR [D3E] has a documented protein stability index of 2.41

In plain terms, RPDTGDDAAGHGFCYCAGSHDRKR [K21D] has a documented protein stability index of 3.15

In plain terms, RPDTGDDAAGHGFCYCAGSDKRKR [H20D] has a documented protein stability index of 3.35

In plain terms, RPDTGDDAAGVGFCYCAGSHKRKR [H11V] has a documented protein stability index of 2.75
